assay: Reactive carbonyl species trapping activity of compound assessed as MDA adduct formation at 10 mM preincubated for 24 hrs with MDA measured after 0.25 hrs by LCMS analysis; assay type: physicochemical; details: 10000 µM
Response key: YES means Activity >= 60%; NO means Activity < 60%.

The examples below pair each entry with its known result.
{"MOLECULE": "Cl.Cl.NCC(N)CCCCNC(=O)CCn1cccc(O)c1=O (configuration not stated)", "CLASS NAME": "YES"}
{"MOLECULE": "Cl.Cl.NCC(N)CC(=O)N1CCN(C(=O)CCn2cccc(O)c2=O)CC1 (configuration not stated)", "CLASS NAME": "YES"}
{"MOLECULE": "Cc1c(O)c(=O)ccn1CCC(=O)NCCCCC(N)CN.Cl.Cl (configuration not stated)", "CLASS NAME": "YES"}
{"MOLECULE": "Cl.Cl.NCC(N)CCC(=O)N1CCN(C(=O)CCn2cccc(O)c2=O)CC1 (configuration not stated)", "CLASS NAME": "YES"}
{"MOLECULE": "NCCC(=O)N[C@@H](Cc1cnc[nH]1)C(=O)O", "CLASS NAME": "NO"}

Prompt: // inclusive: Activity at least 60%? input: Cc1c(O)c(=O)ccn1CCCNC(=O)CCC(N)CN.Cl.Cl (configuration not stated)
Response: YES

Prompt: // inclusive: Activity at least 60%? input: Cl.Cl.NCC(N)CCCNC(=O)CCn1cccc(O)c1=O (configuration not stated)
Response: NO

Prompt: // inclusive: Activity at least 60%? input: Cl.Cl.NCC(N)C(=O)N1CCNCC1 (configuration not stated)
Response: YES

Prompt: // inclusive: Activity at least 60%? input: CCCCN1CCN(C(=O)C(N)CN)CC1.Cl.Cl (configuration not stated)
Response: YES

Cited source for all entries: ChEMBL document CHEMBL3865830
